STUDY TARGET: A*6801 (Homo sapiens, UniProt P04439, A269V/D185E/E176V/E277Q/E87N/F33Y/G231S/I121M/I166T/I218V/L180W/L300P/L318F/N151K/P208A/P217A/Q86R/R169H/T345S)
ASSAY: biochemical
Type: binding
pIC50: −log10 of the molar value. No end group written: not given here.
Rule: pIC50 of 6 or more gives criterion met; anything lower gives criterion not met.

| CHAIN SEQUENCE | CLASS NAME |
| --- | --- |
| GTRQARKNR [Peptide 9017.0071] | criterion not met |
| NVAPIVHLK [Peptide 1589.21] | criterion met |
| LLFYSKVRK [Peptide 78.0298] | criterion met |

Inquiry: Does pIC50 meet or surpass 6 for QQMFLGTVK [Peptide 88.0415] ?
Reply text: criterion not met

Inquiry: Answer whether pIC50 of CVSHRGLYY [Peptide 88.0401] is greater than or equal to 6.
Reply text: criterion not met

Inquiry: Decide: is the reported value of pIC50 for KIKPPLPSVR [Peptide 9017.0234] equal to or greater than 6?
Reply text: criterion not met

Inquiry: Is it the case that KQGAMLAVFK [Peptide 88.0142] has pIC50 reaching or exceeding 6?
Reply text: criterion met

Inquiry: Tell me whether pIC50 is at least 6 here: KLGIVTITY [Peptide 88.0428]
Reply text: criterion not met

Inquiry: Say whether TVYAEPPR [Peptide 1556.10] shows pIC50 of 6 or more.
Reply text: criterion met

Inquiry: Answer whether pIC50 of ATCALYWYR [Peptide 88.0371] is greater than or equal to 6.
Reply text: criterion met

Inquiry: Hello, I need to know if RTLTLLSVTK [Peptide 1556.13] has measured pIC50 not below 6. Thanks!
Reply text: criterion met

Inquiry: Quick check: does RVHSSHLK [Peptide 1556.72] have pIC50 greater than or equal to 6?
Reply text: criterion not met

Inquiry: Say whether KVSEFRWYRY [Peptide 78.0053] shows pIC50 of 6 or more.
Reply text: criterion not met

Inquiry: hey, is pIC50 for this one >= 6? ESKKKVESK [Peptide 9017.0082]
Reply text: criterion met

Inquiry: Decide: pIC50 of LTSQIEHWK [Peptide 88.0439] >= 6?
Reply text: criterion met

Inquiry: For this sequence, is measured pIC50 6 or higher? HLVPWDQLFR [Peptide 9012.0236]
Reply text: criterion met

Inquiry: Determine whether measured pIC50 meets or exceeds 6 for SLYGKTLEER [Peptide 78.0142]
Reply text: criterion met

Inquiry: For this sequence, is measured pIC50 6 or higher? RVHSSHLKSKK [Peptide 1556.75]
Reply text: criterion not met

Inquiry: State whether the measured pIC50 reaches 6, counting equality as reaching it, for SQWIKYRCSK [Peptide 88.0174]
Reply text: criterion not met

Inquiry: Quick check, pIC50 >= 6? LTALITPKK [Peptide 9017.0101]
Reply text: criterion met

Inquiry: Textbook exercise: given the entry IQIKRRQQK [Peptide 9012.0207] , state whether its pIC50 is greater than or equal to 6.
Reply text: criterion not met

Inquiry: Confirm if pIC50 reported for the sequence LTYISTSQR [Peptide 1589.19] is 6 or above.
Reply text: criterion met

Inquiry: Please check the record HLFWYSWYK [Peptide 76.0168] and state if its pIC50 is at or above 6.
Reply text: criterion met
